target: RAC-alpha serine/threonine-protein kinase (Homo sapiens, UniProt P31749); assay: Inhibition of Akt1
Sequence (P31749 whole entry): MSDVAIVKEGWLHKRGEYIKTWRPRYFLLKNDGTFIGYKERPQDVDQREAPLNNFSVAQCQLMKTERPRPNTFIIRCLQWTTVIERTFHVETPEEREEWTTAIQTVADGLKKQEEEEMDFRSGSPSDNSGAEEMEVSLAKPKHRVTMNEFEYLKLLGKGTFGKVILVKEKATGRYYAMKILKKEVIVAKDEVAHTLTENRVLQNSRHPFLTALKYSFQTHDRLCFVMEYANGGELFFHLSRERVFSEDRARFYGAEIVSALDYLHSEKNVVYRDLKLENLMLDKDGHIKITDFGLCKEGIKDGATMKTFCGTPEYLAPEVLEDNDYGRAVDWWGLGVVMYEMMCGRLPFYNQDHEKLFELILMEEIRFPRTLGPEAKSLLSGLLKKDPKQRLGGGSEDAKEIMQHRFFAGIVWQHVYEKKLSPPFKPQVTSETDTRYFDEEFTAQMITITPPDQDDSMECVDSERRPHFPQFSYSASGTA
assay endpoint: pIC50
Worth noting: pIC50 values are minus log10 of concentrations stated in mol/L.

Give recorded pIC50 with RAC-alpha serine/threonine-protein kinase (Homo sapiens, UniProt P31749) for the following compound: O=C1NCCc2nc(-c3ccc(CN4CCC(c5nnc(-c6ccccn6)[nH]5)CC4)cc3)c(-c3ccccc3)cc21
8.46

Also COc1ccc(-c2nnc(C3CCN(Cc4ccc(-c5nc6cc[nH]c(=O)c6cc5-c5ccccc5)cc4)CC3)[nH]2)cn1 , if possible.
8.52

Record: Nc1ccc(-c2nnc(C3CCN(Cc4ccc(-c5nc6cc[nH]c(=O)c6cc5-c5ccccc5)cc4)CC3)[nH]2)cn1
8.40

Likewise for O=c1[nH]ccc2nc(-c3ccc(CN4CCC(c5nnc(-c6ncccn6)[nH]5)CC4)cc3)c(-c3ccccc3)cc12 ?
8.15

Then O=c1[nH]ccc2nc(-c3ccc(CN4CCC(c5nnc(-c6cnccn6)[nH]5)CC4)cc3)c(-c3ccccc3)cc12 ?
8.40

Moving on to the next compound: O=c1ccc(-c2nnc(C3CCN(Cc4ccc(-c5nc6cc[nH]c(=O)c6cc5-c5ccccc5)cc4)CC3)[nH]2)c[nH]1
9.00

Again, but for CN(C)CCN1CCN(c2ncc3cc(-c4ccccc4)c(-c4ccc(CN5CCC(c6nnc(-c7ccccn7)[nH]6)CC5)cc4)nc3n2)CC1
8.40
